tested_system: GTPase KRas (Homo sapiens, UniProt P01116, G12V)
Sequence (P01116 whole entry G12V): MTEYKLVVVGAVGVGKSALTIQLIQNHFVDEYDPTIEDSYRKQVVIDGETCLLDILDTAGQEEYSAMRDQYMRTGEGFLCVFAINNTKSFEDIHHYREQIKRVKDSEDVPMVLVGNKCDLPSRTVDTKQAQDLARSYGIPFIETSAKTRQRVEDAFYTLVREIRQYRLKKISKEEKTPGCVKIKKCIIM
assay_remarks: Inhibition of KRAS G12V mutant (unknown origin) expressed in mouse NIH3T3 cells assessed as inhibition of post-translational modification processing
Assay type: cell-based
quantity: IC50 (µM)
Supply the numeric figure in µM, leaving out any unit text.

## Task Recorded IC50 of `CSCC[C@H](CC(=O)[C@H](/C=C\[C@@H](/C=C/[C@@H](N)CS)C(C)C)Cc1ccccc1)C(=O)O` , please.
## Result 25

* * *

System: NCI-H441
assay_remarks: Antiproliferative activity against human NCI-H441 cells harboring KRAS 12 mutation assessed as inhibition of cell growth incubated for 4 to 7 days
Type: functional, cell-based
quantity: IC50 (nM)
Supply the numeric figure in nM, leaving out any unit text.

## Task Recorded IC50 of `Cn1cncc1[C@@](N)(c1ccc(Cl)cc1)c1ccc2c(c1)c(-c1cccc(Cl)c1)cc(=O)n2C` , please.
## Result 36

* * *

assay_remarks: Inhibition of human FPTase using K-RasB peptide as a substrate assessed as inhibition of substrate farnesylation
quantity: pIC50
In plain terms, pIC50 is the concentration in mol/L turned into minus its base-10 logarithm.

## Task Recorded pIC50 of Cn1cncc1[C@@](N)(c1ccc(Cl)cc1)c1ccc2c(c1)c(-c1cccc(Cl)c1)cc(=O)n2C [TIPIFARNIB] , please.
## Result 8.10

* * *

Overview of reported IC50 across a group of compounds:
tested_system: GTPase HRas (Homo sapiens, UniProt P01112)
Sequence (P01112 whole entry): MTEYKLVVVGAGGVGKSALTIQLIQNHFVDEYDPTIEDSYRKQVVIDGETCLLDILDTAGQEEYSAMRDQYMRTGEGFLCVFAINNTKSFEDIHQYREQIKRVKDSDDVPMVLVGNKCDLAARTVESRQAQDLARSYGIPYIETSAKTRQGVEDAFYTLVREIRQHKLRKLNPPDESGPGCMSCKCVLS
assay_remarks: Inhibition of human p21 h-RAS assessed as reduction in C-Cdc25 stimulated nucleotide exchange by luminescence spectrometer based analysis
Supply the numeric figure in µM, leaving out any unit text.

compound: O=S(=O)(NCCOc1ccc2ccccc2c1)c1ccc(NO)cc1
unit_spec: µM
endpoint_value: 56

Please find the next compound below.
## Task Recorded IC50 of [O-][S+](NC[C@@H]1CC2O[C@H](OCc3ccccc3)[C@@H](OCc3ccccc3)C2O1)c1ccc(NO)cc1 (some centres not stated) , please.
## Result 35.5

* * *

assay_remarks: Cmax in cynomolgus monkey
Assay type: ADME, Macaca fascicularis
assay_context: in vivo
quantity: Cmax (nM)
Supply the numeric figure in nM, leaving out any unit text.

## Task Recorded Cmax of `NC(=O)N1CCC(CC(=O)N2CCC([C@H]3c4ncc(Br)cc4CCc4cc(Cl)cc(Br)c43)CC2)CC1` , please.
## Result 1900

* * *

assay_remarks: Binding affinity to human FPTase assessed as inhibition constant
quantity: pKi
In plain terms, pKi is the concentration in mol/L turned into minus its base-10 logarithm.

## Task Recorded pKi of CC(C)=CCC/C(C)=C/CC/C(C)=C/C(O)P(=O)(O)O (stereo unspecified) , please.
## Result 8.28

* * *

assay_remarks: Inhibition of mammalian GGTase-1 expressed in Sf9 cells using wildtype His-tagged RAS-CVLL as substrate assessed as inhibition of substrate plasma membrane localisation
Assay type: cell membranes, Mammalia
quantity: IC50 (nM)
Supply the numeric figure in nM, leaving out any unit text.

## Task Recorded IC50 of `CSCCc1c(-c2cccnc2)nn(-c2ccc(Cl)c(Cl)c2)c1OCCCC(=O)N[C@@H](Cc1ccccc1)C(N)=O` , please.
## Result 2000

* * *

assay_remarks: Lipophilicity, logP of the compound
Format: physicochemical
assay_context: octanol/water
Overview of reported logP across a group of compounds:

compound: C=C1CC[C@@H]2[C@]3(C)COC(c4ccccc4Br)O[C@@H]3CC[C@@]2(C)[C@@H]1C/C=C1/C(=O)OC[C@H]1O (stereo partly drawn)
logP: 2.6

## Task Recorded logP of C=C1CC[C@@H]2[C@]3(C)COC(c4cccc(Br)c4)O[C@@H]3CC[C@@]2(C)[C@@H]1C/C=C1/C(=O)OC[C@H]1O (stereo partly drawn) , please.
## Result 2.6

## Task Recorded logP of C=C1CC[C@@H]2[C@]3(C)COC(c4ccc(F)c(Br)c4)O[C@@H]3CC[C@@]2(C)[C@@H]1C/C=C1/C(=O)OC[C@H]1O (stereo partly drawn) , please.
## Result 2.6
